Could you please report measured Kd for the items listed next?
measurement_target: T1, recombinant human Siglec15-his protein (human, UniProt Q6ZMC9 20-263)
T1 construct: In house made; Biotin-labeled in the capture ELISA
T1 sequence: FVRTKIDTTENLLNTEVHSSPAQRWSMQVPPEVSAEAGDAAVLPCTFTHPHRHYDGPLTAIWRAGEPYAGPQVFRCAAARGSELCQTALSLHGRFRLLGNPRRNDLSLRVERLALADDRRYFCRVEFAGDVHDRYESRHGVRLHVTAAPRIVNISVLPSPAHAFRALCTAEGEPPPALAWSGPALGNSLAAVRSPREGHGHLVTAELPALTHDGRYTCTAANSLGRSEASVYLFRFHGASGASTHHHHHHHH
assay_summary: SPR Biacore T200, antibody captured by anti-human IgG, antigen as analyte, 1:1 fit
Give bare numbers, in nM.

{"columns": ["binder", "Kd (nM)"],
 "data": [
  ["A2A5C7E8-2 (antibody, human IgG1, kappa, V domains shown, Variant of A2A5C7E8 modified in VH CDR2 (X1 = E)) VH: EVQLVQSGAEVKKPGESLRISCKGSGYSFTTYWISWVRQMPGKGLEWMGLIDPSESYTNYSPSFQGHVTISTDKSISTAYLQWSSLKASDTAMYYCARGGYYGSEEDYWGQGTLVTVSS VL: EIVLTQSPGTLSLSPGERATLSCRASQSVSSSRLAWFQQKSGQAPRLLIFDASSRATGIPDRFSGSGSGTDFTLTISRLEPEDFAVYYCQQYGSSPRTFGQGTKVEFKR", 0.164]
]}

Could I get Kd for every one of these entries?
1. A2A5C7E8 (antibody, V domains shown, Fully human antibody from transgenic mouse hybridoma; also called A2A5C7E8-1) VH: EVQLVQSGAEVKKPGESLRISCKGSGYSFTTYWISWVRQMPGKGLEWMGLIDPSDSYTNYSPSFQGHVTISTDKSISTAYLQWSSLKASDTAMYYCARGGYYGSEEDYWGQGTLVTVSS VL: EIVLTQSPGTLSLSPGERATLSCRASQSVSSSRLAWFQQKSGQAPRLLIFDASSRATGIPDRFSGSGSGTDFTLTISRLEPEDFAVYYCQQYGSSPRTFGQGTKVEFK
2. anti-Siglec15 benchmark (ch5G12) (antibody, human IgG1, kappa, V domains shown, ch5G12 (US 20190202912A1); also called BM; Siglec15-ch5G9) VH: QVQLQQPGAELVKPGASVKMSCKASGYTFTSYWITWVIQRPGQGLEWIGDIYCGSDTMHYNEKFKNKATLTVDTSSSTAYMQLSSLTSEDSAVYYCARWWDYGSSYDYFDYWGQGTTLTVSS VL: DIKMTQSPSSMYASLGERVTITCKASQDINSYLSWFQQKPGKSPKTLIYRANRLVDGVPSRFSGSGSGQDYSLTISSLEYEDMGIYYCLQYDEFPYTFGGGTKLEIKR
3. A2A5C7E8-3 (antibody, human IgG1, kappa, V domains shown, Variant of A2A5C7E8 modified in VH CDR2 (X2 = K)) VH: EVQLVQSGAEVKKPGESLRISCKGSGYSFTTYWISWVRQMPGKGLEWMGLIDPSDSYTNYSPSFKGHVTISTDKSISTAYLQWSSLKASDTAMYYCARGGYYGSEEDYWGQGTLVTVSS VL: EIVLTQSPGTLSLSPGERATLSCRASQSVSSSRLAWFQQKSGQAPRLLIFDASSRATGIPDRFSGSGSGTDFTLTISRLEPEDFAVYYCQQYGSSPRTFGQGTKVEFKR

Response line:
1. 0.0383
2. 0.422
3. 0.0396
